tested on: Mus musculus; assay: Behavioral toxicity in po dosed albino Icem-CET (SPF Caw) mouse assessed as reduction in locomotor activity by Irwin's test; type: organism-based; conditions: in vivo
The entries below are paired with their reported ED50.
Your answer is read as mg/kg, so omit the unit and give the number.

Use these answered entries as a reference point.
C/C(C(=O)NC1CC1)=C(/C)c1ccc(Cl)cc1 : 350
C#CCNC(=O)/C(C)=C(\C)c1ccc(Cl)cc1 : 60
C=CCNC(=O)/C(C)=C(/C)c1ccc(Cl)cc1 : 180
COc1cc(/C(C)=C(\C)C(=O)NC2CC2)cc(OC)c1OC : 320
C/C(C(=O)NC1CC1)=C(/C)c1ccc(F)cc1 : 110

Lookup: ED50 / Mus musculus / C=CCNC(=O)/C(C)=C(\C)c1ccc(F)cc1 70

Lookup: ED50 / Mus musculus / C/C(C(=O)NC1CC1)=C(\C)c1ccc(Br)cc1 300

Lookup: ED50 / Mus musculus / C=CCNC(=O)/C(C)=C(/C)c1ccc(OC)cc1 280

Lookup: ED50 / Mus musculus / COc1ccc(/C(C)=C(/C)C(=O)NC2CC2)cc1 300

Lookup: ED50 / Mus musculus / C=CCNC(=O)/C(C)=C(\C)c1ccc(C)cc1 100

Lookup: ED50 / Mus musculus / C/C(C(=O)NC1CC1)=C(\C)c1ccccc1 400

Lookup: ED50 / Mus musculus / C=CCNC(=O)/C(C)=C(\C)c1ccccc1 130

Lookup: ED50 / Mus musculus / C#CCNC(=O)/C(C)=C(\C)c1ccc(OC)cc1 150

Lookup: ED50 / Mus musculus / C=CCNC(=O)/C(C)=C(/C)c1ccc(C)cc1 280

Lookup: ED50 / Mus musculus / C#CCNC(=O)/C(C)=C(\C)c1cc(OC)c(OC)c(OC)c1 160

Lookup: ED50 / Mus musculus / C/C(C(=O)NC1CC1)=C(\C)c1ccc(Cl)cc1 170

Lookup: ED50 / Mus musculus / C=CCNC(=O)/C(C)=C(/C)c1ccc(Br)cc1 400

---

The entries below are paired with their reported MED.
tested on: Mus musculus; experiment: Toxicity in po dosed albino Icem-CET (SPF Caw) mouse assessed as clonic type convulsion by Irwin's test; type: organism-based; details: in vivo
Please append the unit to your numeric answer.

C=CCNC(=O)/C(C)=C(/C)c1ccc(Cl)cc1 : 400 mg/kg
C=CCNC(=O)/C(C)=C(/C)c1ccccc1 : 400 mg/kg
C/C(C(=O)NC1CC1)=C(\C)c1ccc(F)cc1 : 800 mg/kg
C/C(C(=O)NC1CC1)=C(\C)c1ccccc1 : 400 mg/kg
C=CCNC(=O)/C(C)=C(/C)c1ccc(F)cc1 : 800 mg/kg
C=CCNC(=O)/C(C)=C(/C)c1ccc(OC)cc1 : 400 mg/kg
C=CCNC(=O)/C(C)=C(/C)c1ccc(C)cc1 : 400 mg/kg

Here's the next entry for you.
Lookup: MED / Mus musculus / COc1ccc(/C(C)=C(/C)C(=O)NC2CC2)cc1 400 mg/kg

---

The entries below are paired with their reported LD50 at 168 h.
assay: Behavioral toxicity in po dosed albino Icem-CET (SPF Caw) mouse measured up to 7 days by Irwin's test; format: organism-based; details: in vivo
Your answer is read as mg/kg, so omit the unit and give the number.

Use these answered entries as a reference point.
C=CCNC(=O)/C(C)=C(/C)c1ccc(OC)cc1 : 400
C#CCNC(=O)/C(C)=C(\C)c1ccc(Br)cc1 : 300
COc1ccc(/C(C)=C(/C)C(=O)NC2CC2)cc1 : 450
C#CCNC(=O)/C(C)=C(\C)c1ccc(F)cc1 : 240
C/C(C(=O)NC1CC1)=C(\C)c1ccc(Br)cc1 : 600

Here's the next entry for you.
Which value of LD50 at 168 h has been reported for C/C(C(=O)NC1CC1)=C(\C)c1ccc(F)cc1 in the records? 450
